Tested on: monocytes (monocyte-lin)
Experiment: MLTA, Mono: concentration-response and QSP model fit
Type: cell-based, human
Conditions: QSP model parameter, sheet EC50_parameters; Mono
measured_parameter: EC50 (nM)
Enter your answer as a number in nM; do not include the unit.

- O=c1[nH]cc(F)c(=O)[nH]1: 299

Now for another entry.
Fill in reported EC50 for this entry: `Cc1c(-c2ccc(N3CCc4cccc(C(=O)Nc5nc6ccccc6s5)c4C3)nc2C(=O)O)cnn1CC12CC3CC(CC(C3)C1)C2`
15.5

====

Tested on: total viable cells (totalViableCells)
Assay: MLTA, total live cells concentration-response
Type: cell-based
Settings: Homo sapiens, 144 h; dose 0.2 nM, 6 days, normalized to vehicle control; read-out: total_live normalized cell count
Collected viability at 0.0002 µM values appear next to each entry.
Provide the measurement as a number trailed by its unit.

* CCN1CCN(Cc2ccc(Nc3ncc(F)c(-c4cc(F)c5nc(C)n(C(C)C)c5c4)n3)nc2)CC1 | 99.1%
* CC(=O)O[C@@]12CO[C@@H]1C[C@H](O)[C@@]1(C)C(=O)[C@H](O)C3=C(C)[C@@H](OC(=O)[C@H](O)[C@@H](NC(=O)OC(C)(C)C)c4ccccc4)C[C@@](O)([C@@H](OC(=O)c4ccccc4)[C@H]21)C3(C)C | 100%
* CN(C)C(=O)c1cc2cnc(Nc3ccc(N4CCNCC4)cn3)nc2n1C1CCCC1 | 90%
* CS(=O)(=O)N1CCN(Cc2cc3nc(-c4cccc5[nH]ncc45)nc(N4CCOCC4)c3s2)CC1 | 97.8%
* CCc1cnn2c(NCc3ccc[n+]([O-])c3)cc(N3CCCC[C@H]3CCO)nc12 | 95.4%

Fill in reported viability at 0.0002 µM for this entry: `CC(=O)c1c(C)c2cnc(Nc3ccc(N4CCNCC4)cn3)nc2n(C2CCCC2)c1=O`
94.8%

Fill in reported viability at 0.0002 µM for this entry: `CC(=O)O[C@H]1C(=O)[C@@]2(C)[C@H]([C@H](OC(=O)c3ccccc3)[C@]3(O)C[C@H](OC(=O)[C@H](O)[C@@H](NC(=O)c4ccccc4)c4ccccc4)C(C)=C1C3(C)C)[C@]1(OC(C)=O)CO[C@@H]1C[C@@H]2O`
102%

Fill in reported viability at 0.0002 µM for this entry: O=C1CCC(N2C(=O)c3ccccc3C2=O)C(=O)N1 (centres unmarked) [thalidomide]
90.8%

====

System: lymphocyte progenitors (LymP)
Test: MLTA, LymP: concentration-response and QSP model fit
Assay type: cell-based, human
Details: Homo sapiens, Lymphocyte, 144 h; dose 5 nM, 6 days, normalized to vehicle control; read-out: LymP normalized cell count
measured_parameter: activity at 0.005 µM (%)
Enter your answer as a number in %; do not include the unit.

Consider the following illustrative entries.
- CC(=O)O[C@@]12CO[C@@H]1C[C@H](O)[C@@]1(C)C(=O)[C@H](O)C3=C(C)[C@@H](OC(=O)[C@H](O)[C@@H](NC(=O)OC(C)(C)C)c4ccccc4)C[C@@](O)([C@@H](OC(=O)c4ccccc4)[C@H]21)C3(C)C [docetaxel]: 24.3
- CS(=O)(=O)N1CCN(Cc2cc3nc(-c4cccc5[nH]ncc45)nc(N4CCOCC4)c3s2)CC1 [pictilisib]: 86.9

Now for another entry.
Fill in reported activity at 0.005 µM for this entry: CC(=O)O[C@H]1C(=O)[C@@]2(C)[C@H]([C@H](OC(=O)c3ccccc3)[C@]3(O)C[C@H](OC(=O)[C@H](O)[C@@H](NC(=O)c4ccccc4)c4ccccc4)C(C)=C1C3(C)C)[C@]1(OC(C)=O)CO[C@@H]1C[C@@H]2O [paclitaxel]
61.3

====

Test system: monocytes (monocyte-lin)
Assay: MLTA, Mono: concentration-response and QSP model fit
Assay type: cell-based, human
Conditions: Homo sapiens, Monocyte, 144 h; dose 0.2 nM, 6 days, normalized to vehicle control; read-out: Mon normalized cell count
Rule: activity at 0.0002 µM under 90% gives label 0, otherwise label 1.

These recorded examples may help you get a feel for the data.
• CC(=O)O[C@@]12CO[C@@H]1C[C@H](O)[C@@]1(C)C(=O)[C@H](O)C3=C(C)[C@@H](OC(=O)[C@H](O)[C@@H](NC(=O)OC(C)(C)C)c4ccccc4)C[C@@](O)([C@@H](OC(=O)c4ccccc4)[C@H]21)C3(C)C = label 1
• CCN1CCN(Cc2ccc(Nc3ncc(F)c(-c4cc(F)c5nc(C)n(C(C)C)c5c4)n3)nc2)CC1 = label 1
• CN(C)C(=O)c1cc2cnc(Nc3ccc(N4CCNCC4)cn3)nc2n1C1CCCC1 = label 0

With those in mind, consider the next compound.
Can O=C1CCC(N2C(=O)c3ccccc3C2=O)C(=O)N1 (centres unmarked) [thalidomide] be said to have activity at 0.0002 µM at or above 90%?
label 0

====

System: granulocyte progenitor (Gran-lin prog)
Experiment: MLTA, GranP: concentration-response and QSP model fit
Type: cell-based, human
Settings: Homo sapiens, 144 h; dose 0.2 nM, 6 days, normalized to vehicle control; read-out: GranPs normalized cell count
measured_parameter: activity at 0.0002 µM (%)
Enter your answer as a number in %; do not include the unit.

Consider the following illustrative entries.
* CS(=O)(=O)N1CCN(Cc2cc3nc(-c4cccc5[nH]ncc45)nc(N4CCOCC4)c3s2)CC1 | 95.5
* CC(=O)O[C@@]12CO[C@@H]1C[C@H](O)[C@@]1(C)C(=O)[C@H](O)C3=C(C)[C@@H](OC(=O)[C@H](O)[C@@H](NC(=O)OC(C)(C)C)c4ccccc4)C[C@@](O)([C@@H](OC(=O)c4ccccc4)[C@H]21)C3(C)C | 110
* CC(=O)O[C@H]1C(=O)[C@@]2(C)[C@H]([C@H](OC(=O)c3ccccc3)[C@]3(O)C[C@H](OC(=O)[C@H](O)[C@@H](NC(=O)c4ccccc4)c4ccccc4)C(C)=C1C3(C)C)[C@]1(OC(C)=O)CO[C@@H]1C[C@@H]2O | 114

Now for another entry.
Fill in reported activity at 0.0002 µM for this entry: O=C1CCC(N2C(=O)c3ccccc3C2=O)C(=O)N1 (stereo not shown) [thalidomide]
80.9

====

Test system: B cells (B-lin)
Test: MLTA, B-lin: concentration-response and QSP model fit
Type: cell-based, human
Settings: Homo sapiens, B-cell, 144 h; dose 25 nM, 6 days, normalized to vehicle control; read-out: B-lin normalized cell count
Rule: activity at 0.025 µM under 50% gives rule not met, otherwise rule met.

* CC(=O)O[C@@]12CO[C@@H]1C[C@H](O)[C@@]1(C)C(=O)[C@H](O)C3=C(C)[C@@H](OC(=O)[C@H](O)[C@@H](NC(=O)OC(C)(C)C)c4ccccc4)C[C@@](O)([C@@H](OC(=O)c4ccccc4)[C@H]21)C3(C)C | rule not met
* O=C1CCC(N2C(=O)c3ccccc3C2=O)C(=O)N1 (centres unmarked) [thalidomide] | rule met
* CN(C)C(=O)c1cc2cnc(Nc3ccc(N4CCNCC4)cn3)nc2n1C1CCCC1 | rule met
* CC(=O)c1c(C)c2cnc(Nc3ccc(N4CCNCC4)cn3)nc2n(C2CCCC2)c1=O | rule met
* CC(=O)O[C@H]1C(=O)[C@@]2(C)[C@H]([C@H](OC(=O)c3ccccc3)[C@]3(O)C[C@H](OC(=O)[C@H](O)[C@@H](NC(=O)c4ccccc4)c4ccccc4)C(C)=C1C3(C)C)[C@]1(OC(C)=O)CO[C@@H]1C[C@@H]2O | rule not met

Can `CCc1cnn2c(NCc3ccc[n+]([O-])c3)cc(N3CCCC[C@H]3CCO)nc12` be said to have activity at 0.025 µM at or above 50%?
rule not met

Can `CS(=O)(=O)N1CCN(Cc2cc3nc(-c4cccc5[nH]ncc45)nc(N4CCOCC4)c3s2)CC1` be said to have activity at 0.025 µM at or above 50%?
rule met

====

Tested on: multi-potent progenitors (MPPs)
Assay: MLTA, MPPs: concentration-response and QSP model fit
Format: cell-based, human
Conditions: Homo sapiens, 144 h; dose 500 nM, 6 days, normalized to vehicle control; read-out: MPPs normalized cell count
Procedure: A custom optimized cytokine cocktail was developed using commercially available cytokines (Peprotech, New Jersey) to facilitate simultaneous multi-lineage differentiation and self-renewal of freeze-thawed primary human bone marrow-derived CD34+ cells in SFEM II media (cells and media from StemCell Technologies, Vancouver). […] Donor material was collected and cultured as described above. […] Following treatment, cell populations were measured using flow cytometry. […]
Collected activity at 0.5 µM values appear next to each entry.
Enter your answer as a number in %; do not include the unit.

• CCN1CCN(Cc2ccc(Nc3ncc(F)c(-c4cc(F)c5nc(C)n(C(C)C)c5c4)n3)nc2)CC1 [abemaciclib] = 27.6
• CN(C)C(=O)c1cc2cnc(Nc3ccc(N4CCNCC4)cn3)nc2n1C1CCCC1 [ribociclib] = 28.4
• CC(=O)O[C@H]1C(=O)[C@@]2(C)[C@H]([C@H](OC(=O)c3ccccc3)[C@]3(O)C[C@H](OC(=O)[C@H](O)[C@@H](NC(=O)c4ccccc4)c4ccccc4)C(C)=C1C3(C)C)[C@]1(OC(C)=O)CO[C@@H]1C[C@@H]2O [paclitaxel] = 0.649

Fill in reported activity at 0.5 µM for this entry: CS(=O)(=O)N1CCN(Cc2cc3nc(-c4cccc5[nH]ncc45)nc(N4CCOCC4)c3s2)CC1 [pictilisib]
38.2

Reference source for all entries: paper PMC7402526
